pIC50: −log10 of the molar value.
Here's what we have: pIC50 numbers for FGFR2 (Homo sapiens).

Answered cases to consult:
- compound: "C=CC(=O)Nc1ccc(-n2nc3c(=O)[nH]nc(N)c3c2-c2ccc(Oc3nccc(C)n3)c(OC)c2)cc1"
  pIC50: "> 8.30"
- compound: "C=CC(=O)Nc1ccc(-c2nn3ncnc(N)c3c2-c2ccc(C(=O)NC3CC3)c(OC)c2)cc1"
  pIC50: "> 8.30"
- compound: "C=C(F)C(=O)Nc1ccc(-c2nn3ncnc(N)c3c2-c2ccc(C(=O)NC3(C(F)(F)F)CC3)c(OC)c2)c(OC)c1"
  pIC50: "> 8.30"

## Task State the recorded pIC50 for this entry: C=C(F)C(=O)Nc1ccc(-c2nn3ncnc(N)c3c2-c2ccc(C(=O)NC3CC(F)C3)c(OC)c2)c(F)c1 (stereo not shown)
## Result > 8.30

## Task Another compound to look at: C=CC(=O)Nc1ccc(-c2nn3ncnc(N)c3c2-c2ccc(C(=O)NC3CC3)c(OC)c2)c(OC)c1
## Result > 8.30

## Task Another compound to look at: C=CC(=O)Nc1ccc(-c2nn3ncnc(N)c3c2-c2ccc(C(=O)NCC3(C#N)CC3)c(OC)c2)cc1
## Result > 8.30

## Task Another compound to look at: C=C(F)C(=O)Nc1ccc(-c2c(-c3ccc(Oc4nccc(C)n4)c(F)c3)c3c(N)ncc(C#N)c3n2C)cc1
## Result > 8.30

## Task Another compound to look at: C=CC(=O)Nc1ccc(-c2c(-c3ccc(C(=O)NC4CC4(F)F)c(OC)c3)c3c(N)ncc(C#N)c3n2C)cc1 (stereo not shown)
## Result > 8.30

## Task Another compound to look at: [2H]C([2H])([2H])n1c(-c2ccc(NC(=O)C=C)cc2)c(-c2ccc(C(=O)NCC(F)(F)F)c(OC)c2)c2c(N)ncc(C#N)c21
## Result > 8.30

## Task Another compound to look at: C=C(F)C(=O)Nc1ccc(-c2nn3ncnc(N)c3c2-c2ccc(C(=O)NC3CCCC3)c(OC)c2)cc1
## Result < 8.00

## Task Another compound to look at: C=C(C)C(=O)Nc1ccc(-c2nn3ncnc(N)c3c2-c2ccc(Oc3nccc(C)n3)c(F)c2)c(C)c1
## Result < 8.00

## Task Another compound to look at: C=CC(=O)Nc1ccc(-c2nn3ncnc(N)c3c2-c2ccc(C(=O)NC3CC(F)(F)C3)c(OC)c2)cc1
## Result > 8.30

## Task Another compound to look at: C=C(F)C(=O)Nc1ccc(-c2nn3ncnc(N)c3c2-c2ccc(C(=O)NC3CC(F)C3)c(OC)c2)cc1 (stereo not shown)
## Result < 8.00

Values were extracted from patent US20240383905A1.
